Each entry below carries its recorded inhibition.
Tested on: Wnt signaling
protocol: TOPFlash (Wnt) reporter assay in stable HEK293T cell line
Format: cell-based
condition: Homo sapiens, HEK-293T; Table 1; HEK293T TOPFlash, 25 mM LiCl after 6 h
Put your answer as a value accompanied by its unit after it.

CCCC(=O)NC(c1ccc(N(C)C)cc1)c1cc(Cl)c2cccnc2c1O (centres unmarked) [58F8]
88%
CCC(=O)NC(c1ccco1)c1cc(Cl)c2cccnc2c1O (centres unmarked) [58B6]
73%
CCCC(=O)NC(c1ccco1)c1cc(Cl)c2cccnc2c1O (centres unmarked) [48M1]
82%
CCCC(=O)NC(c1ccc(N(CC)CC)cc1)c1cc(Cl)c2cccnc2c1O (centres unmarked) [58B1]
95%

Now for another entry.
QUERY: Can you look up inhibition on Wnt signaling for CC(=O)NC(c1ccc(N(C)C)cc1)c1cc(Cl)c2cccnc2c1O (centres unmarked) [58D8] ?
RESULT: 90%
